Please provide measured Total Cell Count for the entries that follow.
# System: HEK-293T
# measurement_description: Multiplex assay against HEK293T
# Assay type: toxicity, cell-based
# study_conditions: human, 12 h, 1 µM, compound concentration 1 uM, replicate 1
Answer as a number with no unit attached.

Ask: Note down Total Cell Count recorded for `CC(C)(C)c1cnc(CSc2cnc(NC(=O)C3CCNCC3)s2)o1`
Result: 507

Ask: Name the recorded Total Cell Count of the item `CN(C)CCOc1ccc(-c2nc(-c3ccncc3)c(-c3ccc4c(c3)CC/C4=N\O)[nH]2)cc1` in your answer.
Result: 678

Ask: Read the entry `COc1ccc(NS(=O)(=O)c2sc3ccc(Cl)cc3c2C)cc1N1CCNCC1.Cl` and write its reported Total Cell Count.
Result: 385

Ask: Specify Total Cell Count for `COc1cc2c(Nc3ccc(NC(=O)c4ccccc4)cc3)ncnc2cc1OCCCN1CCOCC1` and stop.
Result: 532

Ask: Tell us which Total Cell Count value is on record for `O=C(O)c1ccc2cc(-c3ccc(O)c(C45CC6CC(CC(C6)C4)C5)c3)ccc2c1`
Result: 320

* * *

For each entry below, report its Population Pyknosed Nuclei (%) value.
# System: U2OS
# measurement_description: Multiplex assay against U2OS
# Type: toxicity, cell-based
# study_conditions: human, 48 h, 1 µM, compound concentration 1 uM, replicate 1
Give the number; % is assumed, so skip it.

Ask: Supply reported Population Pyknosed Nuclei (%) belonging to this compound: `CC(=O)c1cc(-c2cc(C(=O)NC3CC3)ccc2C)c2ncccn12`
Result: 5

Ask: Give Population Pyknosed Nuclei (%) for `CCc1cc2c(cc1CC)CC(NC[C@H](O)c1ccc(O)c3[nH]c(=O)ccc13)C2`
Result: 14

Ask: Return Population Pyknosed Nuclei (%) (reported value) for this compound: `O=C(O)c1ccc2cc(-c3ccc(O)c(C45CC6CC(CC(C6)C4)C5)c3)ccc2c1`
Result: 7

Ask: // fetch Population Pyknosed Nuclei (%) given entry `CNc1oc(-c2cccc3ccccc23)nc1C#N`
Result: 3

* * *

# Tested on: Fibroblast
# measurement_description: Incucyte cell viability with human fibroblast; note: filed as whole numbers so only -1 and 0 and 1 occur
# Type: toxicity, cell-based
# study_conditions: 12 h, 10 µM, compound concentration 10 uM, replicate number 1, timepoint 12 hours
So I've got a bunch of compounds here, and I need their Growth Rate values.

Ask: Respond only with Growth Rate recorded for `COc1cc2c(Nc3ccc(NC(=O)c4ccccc4)cc3)ncnc2cc1OCCCN1CCOCC1`
Result: 0

Ask: Specify measured Growth Rate for `CC(=O)[C@@]1(O)CC[C@H]2[C@@H]3C[C@H](C)C4=CC(=O)CC[C@]4(C)[C@H]3CC[C@@]21C` .
Result: 1

Ask: Look up Growth Rate of `C[C@H](CO)Nc1nc(SCc2cccc(Cl)c2F)nc2[nH]c(=O)sc12` and report it.
Result: 1

Ask: For the compound `c1ccc2oc(-c3csc(C4CCN(Cc5nc6ncccc6[nH]5)CC4)n3)cc2c1` , report Growth Rate.
Result: 0

Ask: Let me know recorded Growth Rate for `Cc1cc2c(cc1N1C(=O)c3cccc4c(CCCO)ccc(c34)C1=O)n(C)c(=O)n2C` , thanks.
Result: 0

Ask: Give recorded Growth Rate. CN(C)CC[C@@H](c1ccc(Cl)cc1)c1ccccn1.O=C(O)/C=C\C(=O)O [DEXCHLORPHENIRAMINE MALEATE]
Result: 1

Ask: Please supply the value of reported Growth Rate for the item `CN1C(=O)[C@@H](N2CCc3c(nn(Cc4ccccc4)c3Br)C2=O)COc2ccccc21`
Result: 0

Ask: Look up Growth Rate of `C=CCN1C[C@H](C)N([C@H](c2ccc(C(=O)N(CC)CC)cc2)c2cccc(O)c2)C[C@H]1C` and report it.
Result: 0

Ask: Please look at this compound and report its Growth Rate: `C[C@H](c1ccnc(Nc2nc3ccc(-c4cc(N(C)C)ncn4)cc3[nH]2)c1)N1CCN(C(=O)CC(F)(F)F)CC1`
Result: 1
